system: M14 melanoma; experiment: NCI-60 one-dose screen, 48 h; conditions: 10 µM unless noted
Compounds without any hit were thinned out: in the full panel of roughly 83,000, 20% have a hit. Active and inactive are the calls of the source. How the source made its calls: active means growth percent below 10; inactive means the rest.
Tick one outcome: 1 (yes) (active), 0 (no) (inactive)

Before answering, review these 3 worked examples.
Oc1[nH]c2ccc(Cl)cc2c1/C=c1/ccc2c(c1)N=C(c1ccc(C(F)(F)F)cc1)N=2
0 (no)
Nc1nonc1-c1nc2ccccc2n1CC(=O)Nc1ccc2c(c1)COC2=O
0 (no)
CC(=O)Oc1ccc(C23c4ccccc4C2(OC(C)=O)c2cc(OC(C)=O)ccc23)cc1 (stereo not given)
0 (no)

Problem: Dear all, I need the recorded test outcome for COc1cccc(CCC2C(=O)CCCC2=O)c1 , thank you.
Result: 0 (no)

Problem: Dear all, I need the recorded test outcome for CC(C)[O-].CC(C)[O-].CN(CCN(C)Cc1cc(F)cc(F)c1[O-])Cc1cc(F)cc(F)c1[O-].[Ti+4] , thank you.
Result: 1 (yes)

Problem: Dear all, I need the recorded test outcome for Clc1cc(Cl)c(OCC#CI)cc1Cl , thank you.
Result: 0 (no)

Problem: Dear all, I need the recorded test outcome for C[C@]12CC[C@@H]3c4ccc(O)cc4CC[C@H]3[C@@H]1CC[C@@H]2NS(=O)(=O)c1cccc(Br)c1 , thank you.
Result: 0 (no)

Problem: Dear all, I need the recorded test outcome for CC/C(=C\c1ccc(N(C)C)cc1)c1nc2ccccc2c(=O)[nH]1 , thank you.
Result: 0 (no)

Problem: Dear all, I need the recorded test outcome for O=C(O)C(=O)O , thank you.
Result: 0 (no)

Problem: Dear all, I need the recorded test outcome for Nc1nc(N)c([N+](=O)[O-])c(=O)[nH]1 , thank you.
Result: 0 (no)
